tested on: left saphenous nerve of rats (ectopic firing); test: Inhibition of ectopic firing; assay type: in vivo; conditions: Rattus norvegicus, iv; rats with cut left saphenous nerve, urethane anesthesia, compound via catheter in right cervical vein, number of firings in 10 seconds; read-out: Inhibition of ectopic firing (ID50)
OBSERVED PROPERTY: ED50

> print(dat)
                                   compound                               measured.on  observed.property  measured.result
1  O=C(c1ccccc1F)N(C(=O)c1ccccc1F)C1(O)CCN(Cc2ncc[nH]c2=O)CC1  left saphenous nerve of rats (ectopic firing)               ED50   0.5 to 1 mg/kg
2  O=C(Cc1ccccc1Cl)C1CCN(Cc2ncc[nH]c2=O)CC1  left saphenous nerve of rats (ectopic firing)               ED50      < 0.5 mg/kg
3    Cc1cccc(C)c1OCC(C)N (stereo not drawn)  left saphenous nerve of rats (ectopic firing)               ED50     1 to 3 mg/kg
4  O=C(Cc1ccccc1F)C1CCN(CCc2cncc(=O)[nH]2)CC1  left saphenous nerve of rats (ectopic firing)               ED50   0.5 to 1 mg/kg
5  O=C(CC1CCN(Cc2ncc[nH]c2=O)CC1)c1ccccc1Cl  left saphenous nerve of rats (ectopic firing)               ED50      < 0.5 mg/kg
6    O=c1[nH]ccnc1CN1CCC(COc2c(F)cccc2F)CC1  left saphenous nerve of rats (ectopic firing)               ED50   0.5 to 1 mg/kg

###

tested on: sodium channels; format: cell-based; conditions: read-out: IC50 (μM), sodium channel-inhibiting activity; rat fetal cultured hippocampal neurons, SBFI fluorescence in the presence of 4-aminopyridine, 5 minutes after addition, 1 μM tetrodotoxin = 100%
OBSERVED PROPERTY: IC50 (µM)

> print(dat)
                                    compound      measured.on  measured.result
 1    Cc1ccccc1OCC1(O)CCN(Cc2ncc[nH]c2=O)CC1  sodium channels                6
 2       O=c1[nH]ccnc1CN1CCC(CCc2ccccc2F)CC1  sodium channels              4.5
 3   COc1ccccc1OCC1(C)CCN(Cc2ncc[nH]c2=O)CC1  sodium channels              2.9
 4   O=c1[nH]ccnc1CN1CCC(CCc2cccc3ccoc23)CC1  sodium channels                2
 5  COC(Cc1ccccc1F)C1CCN(Cc2ncc[nH]c2=O)CC1 (centres unmarked)  sodium channels              1.2
 6  CCCOc1ccccc1CC(=O)C1CCN(Cc2ncc[nH]c2=O)CC1  sodium channels              2.6
 7  O=c1[nH]ccnc1CN1CCC(CS(=O)(=O)c2ccccc2F)CC1  sodium channels              9.8
 8   O=c1cncc(CCN2CCC(C#Cc3ccccc3F)CC2)[nH]1  sodium channels              3.1
 9  O=C(Cc1ccccc1F)C1(F)CCN(Cc2ncc[nH]c2=O)CC1  sodium channels              9.6
10  C[C@H]1C[C@@H](C(=O)Cc2ccccc2F)CCN1Cc1ncc[nH]c1=O (relative stereo)  sodium channels              4.6
11    Cc1ccccc1CCC1(O)CCN(Cc2ccc[nH]c2=O)CC1  sodium channels                5
12  C[C@@H]1CN(Cc2ncc[nH]c2=O)CC[C@H]1C(=O)Cc1ccccc1F (relative stereo)  sodium channels              4.2
13    O=C(Cc1ccccc1)C1CCN(Cc2ncc[nH]c2=O)CC1  sodium channels              6.2
14  O=c1[nH]ccnc1CN1CCC2(CC1)CC(Oc1ccccc1F)C2  sodium channels              4.5
15  CSc1ccccc1CC(=O)C1CCN(Cc2ncc[nH]c2=O)CC1  sodium channels              3.5
16    O=c1[nH]ccnc1CN1CCC(F)(COc2ccccc2F)CC1  sodium channels                6
17   COc1ccccc1OCC1CCN(CCc2cncc(=O)[nH]2)CC1  sodium channels              6.4
18     CCOc1ccccc1OCC1CCN(Cc2ncc[nH]c2=O)CC1  sodium channels              8.4
19   O=c1[nH]ccnc1CN1CCC(O)(C#Cc2ccccc2F)CC1  sodium channels              1.8
20  O=C(Cc1ccccc1F)C1CCN(Cc2nc3ccccc3[nH]c2=O)CC1  sodium channels              5.2
21  O=C1CN(Cc2ncc[nH]c2=O)CCC1CCc1ccccc1F (centres unmarked)  sodium channels                9
22      O=c1[nH]ccnc1CN1CCC(COCc2ccccc2F)CC1  sodium channels              3.5
23  O=C(c1ccccc1F)N(C(=O)c1ccccc1F)C1(O)CCN(Cc2ncc[nH]c2=O)CC1  sodium channels              8.7
24  O=C(Cc1c(F)cccc1C(F)(F)F)C1CCN(Cc2ncc[nH]c2=O)CC1  sodium channels              1.1
25  CCOC(=O)C1(CCc2ccccc2)CCN(Cc2ccc[nH]c2=O)CC1  sodium channels              3.1
26  O=c1cncc(CCN2CCC(O)(COc3ccccc3F)CC2)[nH]1  sodium channels              3.1
